System: Staphylococcus aureus
Test: Antibacterial activity against methicillin-resistant Staphylococcus aureus ATCC 43300 after 24 hrs by broth microdilution method
Format: functional
Conditions: ATCC 43300, 24 h
Exam item: assign T to entries whose MIC is below 2 µg/mL and F to entries at or above 2 µg/mL. Note that a value of exactly 2 µg/mL receives F.

CC(C)(C)c1cc(C(C)(C)C)c2[nH]c(C(C)(C)C)c(C[C@H](NC(=O)[C@@H](N)CCCNC(=N)N)C(=O)N[C@@H](CCCNC(=N)N)C(=O)NCCc3ccccc3)c2c1 F

Please let me know if COC(=O)[C@H](CCCNC(=N)N)NC(=O)COc1cc(O)c2c(=O)c(OCC(=O)N[C@@H](CCCNC(=N)N)C(=O)OC)c(-c3ccc(OC)cc3)oc2c1CC=C(C)C shows MIC below 2 µg/mL. T

Also, N=C(N)NCCCCC(=O)Nc1cc(C(F)(F)F)cc(NC(=O)c2cc(C(=O)Nc3cc(C(F)(F)F)cc(NC(=O)CCCCNC(=N)N)c3O[C@@H]3CCNC3)ncn2)c1O[C@@H]1CCNC1 please. T

Then CN[C@H](CC(C)C)C(=O)N[C@H]1C(=O)N[C@@H](CC(N)=O)C(=O)N[C@H]2C(=O)N[C@H]3C(=O)N[C@H](C(=O)N[C@H](C(=O)O)c4cc(O)cc(O)c4-c4cc3ccc4O)[C@H](O)c3ccc(c(Cl)c3)Oc3cc2cc(c3O[C@@H]2O[C@H](CO)[C@@H](O)[C@H](O)[C@H]2O[C@H]2C[C@](C)(N)[C@H](O)[C@H](C)O2)Oc2ccc(cc2Cl)[C@H]1O ? T

Let us now turn to COc1ccc(-c2oc3c(CC=C(C)C)c(O)cc(O)c3c(=O)c2O)cc1 F

Values from ChEMBL document CHEMBL4011638
